# System: Proteus Vulgaris 1810
# assay.details: Minimal Inhibitory Concentration, in vitro
# Type: cell-based
# Design: unit not given here
measure.name: Minimal Inhibitory Concentration

Look over these answered cases.
- molecule: "CC(=O)NC(C)(C)C(=O)Nc1ccc(-c2ncc(C(=O)N[C@@H](C(=O)N[C@@H]3C(=O)N4[C@@H]3SC(C)(C)[C@@H]4C(=O)O)c3ccc(O)cc3)c(O)n2)cc1"
  Minimal Inhibitory Concentration: 0.4
- molecule: "CCC(=O)N[C@@H](C)C(=O)Nc1ccc(-c2ncc(C(=O)N[C@@H](C(=O)N[C@@H]3C(=O)N4[C@@H]3SC(C)(C)[C@@H]4C(=O)O)c3ccc(O)cc3)c(O)n2)cc1"
  Minimal Inhibitory Concentration: 3.1
- molecule: "CC(=O)NC(C)C(=O)Nc1ccc(-c2ncc(C(=O)N[C@@H](C(=O)N[C@@H]3C(=O)N4[C@@H]3SC(C)(C)[C@@H]4C(=O)O)c3ccc(O)cc3)c(O)n2)cc1 (mixture of isomers)"
  Minimal Inhibitory Concentration: 0.8
- molecule: "CC(=O)NC(CC(C)C)C(=O)Nc1ccc(-c2ncc(C(=O)N[C@@H](C(=O)N[C@@H]3C(=O)N4[C@@H]3SC(C)(C)[C@@H]4C(=O)O)c3ccc(O)cc3)c(O)n2)cc1 (mixture of isomers)"
  Minimal Inhibitory Concentration: 3.1
- molecule: "CC(=O)N1CCCC1C(=O)Nc1ccc(-c2ncc(C(=O)N[C@@H](C(=O)N[C@@H]3C(=O)N4[C@@H]3SC(C)(C)[C@@H]4C(=O)O)c3ccc(O)cc3)c(O)n2)cc1 (mixture of isomers)"
  Minimal Inhibitory Concentration: 1.6

Now let's try a different one.
Looking up CC1(C)S[C@@H]2[C@H](NC(=O)[C@H](NC(=O)c3cnc(-c4ccc(NC(=O)CNC(N)=O)cc4)nc3O)c3ccc(O)cc3)C(=O)N2[C@H]1C(=O)O , I found its Minimal Inhibitory Concentration recorded as 3.1

====

# Tested on: Serratia Marcescens IMM-16
# assay.details: Minimal Inhibitory Concentration, in vitro
# Assay type: cell-based
# Parameters: unit not given here
// values below are reported Minimal Inhibitory Concentration
API doc: respond with a numeric literal and nothing else, no unit.

Completed entries (count: 8):
- compound: "CC(=O)NC(C)(C)C(=O)Nc1ccc(-c2ncc(C(=O)N[C@@H](C(=O)N[C@@H]3C(=O)N4[C@@H]3SC(C)(C)[C@@H]4C(=O)O)c3ccc(O)cc3)c(O)n2)cc1"
  tgt: "Serratia Marcescens IMM-16"
  Minimal Inhibitory Concentration: 12.5
- compound: "CC(=O)NC(CC(C)C)C(=O)Nc1ccc(-c2ncc(C(=O)N[C@@H](C(=O)N[C@@H]3C(=O)N4[C@@H]3SC(C)(C)[C@@H]4C(=O)O)c3ccc(O)cc3)c(O)n2)cc1 (mixture of isomers)"
  tgt: "Serratia Marcescens IMM-16"
  Minimal Inhibitory Concentration: 25
- compound: "CC(=O)NCCC(=O)Nc1ccc(-c2ncc(C(=O)N[C@@H](C(=O)N[C@@H]3C(=O)N4[C@@H]3SC(C)(C)[C@@H]4C(=O)O)c3ccc(O)cc3)c(O)n2)cc1"
  tgt: "Serratia Marcescens IMM-16"
  Minimal Inhibitory Concentration: 6.3
- compound: "CSCCC(NC(C)=O)C(=O)Nc1ccc(-c2ncc(C(=O)N[C@@H](C(=O)N[C@@H]3C(=O)N4[C@@H]3SC(C)(C)[C@@H]4C(=O)O)c3ccc(O)cc3)c(O)n2)cc1 (mixture of isomers)"
  tgt: "Serratia Marcescens IMM-16"
  Minimal Inhibitory Concentration: 12.5
- compound: "CCC(=O)N[C@@H](C)C(=O)Nc1ccc(-c2ncc(C(=O)N[C@@H](C(=O)N[C@@H]3C(=O)N4[C@@H]3SC(C)(C)[C@@H]4C(=O)O)c3ccc(O)cc3)c(O)n2)cc1"
  tgt: "Serratia Marcescens IMM-16"
  Minimal Inhibitory Concentration: 12.5
- compound: "CC1(C)S[C@@H]2[C@H](NC(=O)[C@H](NC(=O)c3cnc(-c4ccc(NC(=O)CN5CCCC5=O)cc4)nc3O)c3ccc(O)cc3)C(=O)N2[C@H]1C(=O)O"
  tgt: "Serratia Marcescens IMM-16"
  Minimal Inhibitory Concentration: 25
- compound: "CC(=O)N[C@@H](Cc1ccc(O)cc1)C(=O)Nc1ccc(-c2ncc(C(=O)N[C@@H](C(=O)N[C@@H]3C(=O)N4[C@@H]3SC(C)(C)[C@@H]4C(=O)O)c3ccc(O)cc3)c(O)n2)cc1"
  tgt: "Serratia Marcescens IMM-16"
  Minimal Inhibitory Concentration: 12.5
- compound: "CC(=O)N[C@@H](C)C(=O)Nc1ccc(-c2ncc(C(=O)N[C@@H](C(=O)N[C@@H]3C(=O)N4[C@@H]3SC(C)(C)[C@@H]4C(=O)O)c3ccc(O)cc3)c(O)n2)cc1"
  tgt: "Serratia Marcescens IMM-16"
  Minimal Inhibitory Concentration: 12.5

The compound listed as CC(=O)NCC(=O)Nc1ccc(-c2ncc(C(=O)N[C@@H](C(=O)N[C@@H]3C(=O)N4[C@@H]3SC(C)(C)[C@@H]4C(=O)O)c3ccc(O)cc3)c(O)n2)cc1 has a reported Minimal Inhibitory Concentration of 6.3
